tested on: MGC 803 (human gastric cancer cell); assay: Solid tumor cell growth inhibition, MTT, 72 h (Example 7); assay type: cell-based; conditions: Homo sapiens
endpoint: log10 IC90 (log10 of the value in µg/mL)

line_notation=CNCc1c2c3c(c(OC)c1OC)Oc1cc4c(cc1OC)CCN(C)[C@H]4Cc1ccc(cc1)Oc1cc(ccc1OC)C[C@@H]3N(C)CC2 value_observed=0.73
line_notation=CCN1CCN(Cc2c3c4c(c(OC)c2OC)Oc2cc5c(cc2OC)CCN(C)[C@H]5Cc2ccc(cc2)Oc2cc(ccc2OC)C[C@@H]4N(C)CC3)CC1 value_observed=0.82
line_notation=COc1ccc2cc1Oc1ccc(cc1)C[C@H]1c3cc(c(OC)cc3CCN1C)Oc1c(OC)c(OC)c(CN3CCCCC3)c3c1[C@H](C2)N(C)CC3 value_observed=1.08
line_notation=COc1ccc2cc1Oc1ccc(cc1)C[C@H]1c3cc(c(OC)cc3CCN1C)Oc1c(OC)c(OC)c(COC(C)=O)c3c1[C@H](C2)N(C)CC3 value_observed=1.58
line_notation=COc1ccc2cc1Oc1ccc(cc1)C[C@H]1c3cc(c(OC)cc3CCN1C)Oc1c(OC)c(OC)c(CNCc3cccs3)c3c1[C@H](C2)N(C)CC3 value_observed=0.78
line_notation=COc1ccc2cc1Oc1ccc(cc1)C[C@H]1c3cc(c(OC)cc3CCN1C)Oc1c(OC)c(OC)c(CN3CC=CC3)c3c1[C@H](C2)N(C)CC3 value_observed=0.26
line_notation=COc1ccc2cc1Oc1ccc(cc1)C[C@H]1c3cc(c(OC)cc3CCN1C)Oc1c(OC)c(OC)c(CN3CCN(CCO)CC3)c3c1[C@H](C2)N(C)CC3 value_observed=1.00
line_notation=COc1ccc2cc1Oc1ccc(cc1)C[C@H]1c3cc(c(OC)cc3CCN1C)Oc1c(OC)c(OC)c(COC(=O)c3ccco3)c3c1[C@H](C2)N(C)CC3 value_observed=0.60
line_notation=COc1ccc2cc1Oc1ccc(cc1)C[C@H]1c3cc(c(OC)cc3CCN1C)Oc1c(OC)c(OC)c(COCCn3ccnc3)c3c1[C@H](C2)N(C)CC3 value_observed=0.84
line_notation=COc1ccc2cc1Oc1ccc(cc1)C[C@H]1c3cc(c(OC)cc3CCN1C)Oc1c(OC)c(OC)c(Cn3cccn3)c3c1[C@H](C2)N(C)CC3 value_observed=0.81
line_notation=COc1ccc2cc1Oc1ccc(cc1)C[C@H]1c3cc(c(OC)cc3CCN1C)Oc1c(OC)c(OC)c(CN3CCSCC3)c3c1[C@H](C2)N(C)CC3 value_observed=0.60

====

Listing of recorded IC90 by entry.
tested on: SK-OV-3 (ovarian cancer cell); experiment: Solid tumor cell growth inhibition, MTT, 72 h (Example 7); type: cell-based; details: Homo sapiens
endpoint: IC90

compound="COc1ccc2cc1Oc1ccc(cc1)C[C@H]1c3cc(c(OC)cc3CCN1C)Oc1c(OC)c(OC)cc3c1[C@H](C2)N(C)CC3 [TTD, reference compound]" system_name="SK-OV-3 (ovarian cancer cell)" value_observed="> 16 µg/mL"
compound="COc1ccc2cc1Oc1ccc(cc1)C[C@H]1c3cc(c(OC)cc3CCN1C)Oc1c(OC)c(OC)c(CNCc3ccco3)c3c1[C@H](C2)N(C)CC3 [BS-TE-350]" system_name="SK-OV-3 (ovarian cancer cell)" value_observed="12.9 µg/mL"
compound="COc1ccc2cc1Oc1ccc(cc1)C[C@H]1c3cc(c(OC)cc3CCN1C)Oc1c(OC)c(OC)c(CN3CCCC(CO)C3)c3c1[C@H](C2)N(C)CC3 (some centres unmarked) [BS-TE-351]" system_name="SK-OV-3 (ovarian cancer cell)" value_observed="> 16 µg/mL"
compound="COc1ccc2cc1Oc1ccc(cc1)C[C@H]1c3cc(c(OC)cc3CCN1C)Oc1c(OC)c(OC)c(CNC3CC3)c3c1[C@H](C2)N(C)CC3 [BS-TE-301]" system_name="SK-OV-3 (ovarian cancer cell)" value_observed="24.3 µg/mL"
compound="COc1ccc2cc1Oc1ccc(cc1)C[C@H]1c3cc(c(OC)cc3CCN1C)Oc1c(OC)c(OC)c(CNCc3cccs3)c3c1[C@H](C2)N(C)CC3 [BS-TE-359]" system_name="SK-OV-3 (ovarian cancer cell)" value_observed="14.4 µg/mL"
compound="COc1ccc2cc1Oc1ccc(cc1)C[C@H]1c3cc(c(OC)cc3CCN1C)Oc1c(OC)c(OC)c(CN3CCCC(C)C3)c3c1[C@H](C2)N(C)CC3 (some centres unmarked) [BS-TE-346]" system_name="SK-OV-3 (ovarian cancer cell)" value_observed="> 16 µg/mL"
compound="COc1ccc2cc1Oc1ccc(cc1)C[C@H]1c3cc(c(OC)cc3CCN1C)Oc1c(OC)c(OC)c(CN3CCCCC3)c3c1[C@H](C2)N(C)CC3 [BS-TE-355]" system_name="SK-OV-3 (ovarian cancer cell)" value_observed="> 16 µg/mL"
compound="COc1ccc2cc1Oc1ccc(cc1)C[C@H]1c3cc(c(OC)cc3CCN1C)Oc1c(OC)c(OC)c(CN3CCN(C(C)C)CC3)c3c1[C@H](C2)N(C)CC3 [BS-TE-333]" system_name="SK-OV-3 (ovarian cancer cell)" value_observed="> 16 µg/mL"
compound="COc1ccc2cc1Oc1ccc(cc1)C[C@H]1c3cc(c(OC)cc3CCN1C)Oc1c(OC)c(OC)c(CN(C)[C@@H](C)c3ccccc3)c3c1[C@H](C2)N(C)CC3 [BS-TE-317]" system_name="SK-OV-3 (ovarian cancer cell)" value_observed="8.1 µg/mL"
compound="COc1ccc2cc1Oc1ccc(cc1)C[C@H]1c3cc(c(OC)cc3CCN1C)Oc1c(OC)c(OC)c(COC(=O)c3ccco3)c3c1[C@H](C2)N(C)CC3 [BS-TE-216]" system_name="SK-OV-3 (ovarian cancer cell)" value_observed="> 16 µg/mL"
compound="COc1ccc2cc1Oc1ccc(cc1)C[C@H]1c3cc(c(OC)cc3CCN1C)Oc1c(OC)c(OC)c(CN3CCCC(O)C3)c3c1[C@H](C2)N(C)CC3 (some centres unmarked) [BS-TE-321]" system_name="SK-OV-3 (ovarian cancer cell)" value_observed="> 16 µg/mL"
compound="COc1ccc2cc1Oc1ccc(cc1)C[C@H]1c3cc(c(OC)cc3CCN1C)Oc1c(OC)c(OC)c(CN3CCN(C)CC3)c3c1[C@H](C2)N(C)CC3 [BS-TE-360]" system_name="SK-OV-3 (ovarian cancer cell)" value_observed="3.22 µg/mL"
compound="COc1ccc2cc1Oc1ccc(cc1)C[C@H]1c3cc(c(OC)cc3CCN1C)Oc1c(OC)c(OC)c(CNCc3ccc(C)o3)c3c1[C@H](C2)N(C)CC3 [BS-TE-358]" system_name="SK-OV-3 (ovarian cancer cell)" value_observed="> 16 µg/mL"
compound="COc1ccc2cc1Oc1ccc(cc1)C[C@H]1c3cc(c(OC)cc3CCN1C)Oc1c(OC)c(OC)c(CN3CCSCC3)c3c1[C@H](C2)N(C)CC3 [BS-TE-328]" system_name="SK-OV-3 (ovarian cancer cell)" value_observed="> 16 µg/mL"
compound="CCN1CCN(Cc2c3c4c(c(OC)c2OC)Oc2cc5c(cc2OC)CCN(C)[C@H]5Cc2ccc(cc2)Oc2cc(ccc2OC)C[C@@H]4N(C)CC3)CC1 [BS-TE-342]" system_name="SK-OV-3 (ovarian cancer cell)" value_observed="> 16 µg/mL"
compound="COc1ccc2cc1Oc1ccc(cc1)C[C@H]1c3cc(c(OC)cc3CCN1C)Oc1c(OC)c(OC)c(CN3CCC(C#N)CC3)c3c1[C@H](C2)N(C)CC3 [BS-TE-323]" system_name="SK-OV-3 (ovarian cancer cell)" value_observed="> 16 µg/mL"
compound="COc1ccc2cc1Oc1ccc(cc1)C[C@H]1c3cc(c(OC)cc3CCN1C)Oc1c(OC)c(OC)c(COCc3cccnc3)c3c1[C@H](C2)N(C)CC3 [BS-TE-411]" system_name="SK-OV-3 (ovarian cancer cell)" value_observed="> 16 µg/mL"
compound="COc1ccc2cc1Oc1ccc(cc1)C[C@H]1c3cc(c(OC)cc3CCN1C)Oc1c(OC)c(OC)c(CN3CCCN(C)CC3)c3c1[C@H](C2)N(C)CC3 [BS-TE-356]" system_name="SK-OV-3 (ovarian cancer cell)" value_observed="4 µg/mL"
compound="COCC(C)OCc1c2c3c(c(OC)c1OC)Oc1cc4c(cc1OC)CCN(C)[C@H]4Cc1ccc(cc1)Oc1cc(ccc1OC)C[C@@H]3N(C)CC2 (some centres unmarked) [BS-TE-406]" system_name="SK-OV-3 (ovarian cancer cell)" value_observed="> 16 µg/mL"
compound="COc1ccc2cc1Oc1ccc(cc1)C[C@H]1c3cc(c(OC)cc3CCN1C)Oc1c(OC)c(OC)c(COC(=O)c3cccs3)c3c1[C@H](C2)N(C)CC3 [BS-TE-215]" system_name="SK-OV-3 (ovarian cancer cell)" value_observed="> 16 µg/mL"
compound="COc1ccc2cc1Oc1ccc(cc1)C[C@H]1c3cc(c(OC)cc3CCN1C)Oc1c(OC)c(OC)c(COCCOc3ccccc3)c3c1[C@H](C2)N(C)CC3 [BS-TE-402]" system_name="SK-OV-3 (ovarian cancer cell)" value_observed="3.89 µg/mL"
compound="COc1ccc2cc1Oc1ccc(cc1)C[C@H]1c3cc(c(OC)cc3CCN1C)Oc1c(OC)c(OC)c(CN3CCC(N(C)C)CC3)c3c1[C@H](C2)N(C)CC3 [BS-TE-354]" system_name="SK-OV-3 (ovarian cancer cell)" value_observed="> 16 µg/mL"
compound="CNCc1c2c3c(c(OC)c1OC)Oc1cc4c(cc1OC)CCN(C)[C@H]4Cc1ccc(cc1)Oc1cc(ccc1OC)C[C@@H]3N(C)CC2 [BS-TE-326]" system_name="SK-OV-3 (ovarian cancer cell)" value_observed="5.21 µg/mL"
